target: MLL1 Complex (Homo sapiens, UniProt Q03164); experiment: Methyltransferase inhibition panel: MLL1 Complex; conditions: control compound; substrate Nucleosomes 0.05 mg/mL
pIC50: −log10 of the molar value.
experimentalEndpoint: pIC50

>>> recordedmeasurement("Nc1ncnc2c1ncn2[C@@H]1O[C@H](CSCC[C@H](N)C(=O)O)[C@@H](O)[C@H]1O [SAH, reference compound]")
6.69

====

Molecular target: NSD3 (Homo sapiens, UniProt Q9BZ95)
Sequence (Q9BZ95 1-1437): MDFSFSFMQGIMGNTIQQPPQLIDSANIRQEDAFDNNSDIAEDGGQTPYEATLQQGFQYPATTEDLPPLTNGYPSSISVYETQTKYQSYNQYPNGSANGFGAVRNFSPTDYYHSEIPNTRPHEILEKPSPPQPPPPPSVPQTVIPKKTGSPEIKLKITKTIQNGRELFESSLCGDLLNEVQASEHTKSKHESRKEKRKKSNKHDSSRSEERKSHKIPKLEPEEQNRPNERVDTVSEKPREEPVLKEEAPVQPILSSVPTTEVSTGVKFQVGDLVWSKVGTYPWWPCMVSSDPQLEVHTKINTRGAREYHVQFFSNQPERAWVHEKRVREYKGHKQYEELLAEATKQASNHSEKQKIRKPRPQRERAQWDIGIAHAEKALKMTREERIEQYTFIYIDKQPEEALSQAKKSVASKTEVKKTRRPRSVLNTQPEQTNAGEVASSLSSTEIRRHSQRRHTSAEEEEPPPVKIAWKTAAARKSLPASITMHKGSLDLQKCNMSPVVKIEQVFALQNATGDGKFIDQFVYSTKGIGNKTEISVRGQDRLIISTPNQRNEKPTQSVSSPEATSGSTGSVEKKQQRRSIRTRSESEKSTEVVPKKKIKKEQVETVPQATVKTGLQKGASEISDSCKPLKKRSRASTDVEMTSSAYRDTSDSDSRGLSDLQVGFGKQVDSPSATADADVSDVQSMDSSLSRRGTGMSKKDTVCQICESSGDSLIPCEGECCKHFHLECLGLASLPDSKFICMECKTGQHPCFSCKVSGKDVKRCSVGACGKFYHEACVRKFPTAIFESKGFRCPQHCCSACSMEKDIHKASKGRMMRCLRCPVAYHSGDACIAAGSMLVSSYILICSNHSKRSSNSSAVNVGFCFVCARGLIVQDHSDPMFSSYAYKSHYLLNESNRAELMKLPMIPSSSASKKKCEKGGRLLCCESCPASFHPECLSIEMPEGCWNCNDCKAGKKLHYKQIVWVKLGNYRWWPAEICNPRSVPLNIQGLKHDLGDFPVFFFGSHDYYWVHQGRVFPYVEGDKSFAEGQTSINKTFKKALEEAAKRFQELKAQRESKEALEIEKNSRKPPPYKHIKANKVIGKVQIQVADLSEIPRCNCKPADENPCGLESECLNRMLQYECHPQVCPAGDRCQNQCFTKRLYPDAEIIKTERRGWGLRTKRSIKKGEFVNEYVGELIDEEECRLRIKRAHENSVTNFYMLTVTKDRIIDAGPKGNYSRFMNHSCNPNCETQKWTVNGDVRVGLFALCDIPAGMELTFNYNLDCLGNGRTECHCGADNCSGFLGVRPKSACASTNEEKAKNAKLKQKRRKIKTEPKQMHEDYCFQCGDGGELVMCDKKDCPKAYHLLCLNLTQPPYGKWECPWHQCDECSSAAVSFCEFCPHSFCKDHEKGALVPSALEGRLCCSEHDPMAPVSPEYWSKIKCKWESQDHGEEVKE
pIC50: −log10 of the molar value.
experimentalEndpoint: pIC50

>>> recordedmeasurement("CN1C(=O)[C@@]23C[C@]4([C@]56C[C@@]78SS[C@@](CO)(C(=O)N7[C@H]5Nc5ccccc56)N(C)C8=O)c5ccccc5N[C@@H]4N2C(=O)[C@]1(CO)SS3 [Chaetocin, reference compound]")
7.07

====

target: METTL21A (Homo sapiens)
Sequence (Q8WXB1 whole entry): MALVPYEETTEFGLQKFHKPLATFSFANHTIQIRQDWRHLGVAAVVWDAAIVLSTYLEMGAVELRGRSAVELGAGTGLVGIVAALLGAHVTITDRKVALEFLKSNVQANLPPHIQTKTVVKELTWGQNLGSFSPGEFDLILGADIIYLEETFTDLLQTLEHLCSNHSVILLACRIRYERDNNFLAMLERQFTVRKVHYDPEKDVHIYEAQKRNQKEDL
experimentalEndpoint: IC50

>>> recordedmeasurement("Nc1ncnc2c1ncn2[C@@H]1O[C@H](CSCC[C@H](N)C(=O)O)[C@@H](O)[C@H]1O [SAH, reference compound]")
"64.6 µM"

====

biological target: NSD1 (Homo sapiens, UniProt Q96L73)
experimentalEndpoint: IC50 (µM)

>>> recordedmeasurement("Nc1ncnc2c1ncn2[C@@H]1O[C@H](CSCC[C@H](N)C(=O)O)[C@@H](O)[C@H]1O [SAH, reference compound]")
7.51

====

target: PRMT3 (Homo sapiens, UniProt O60678)
Sequence (O60678 whole entry): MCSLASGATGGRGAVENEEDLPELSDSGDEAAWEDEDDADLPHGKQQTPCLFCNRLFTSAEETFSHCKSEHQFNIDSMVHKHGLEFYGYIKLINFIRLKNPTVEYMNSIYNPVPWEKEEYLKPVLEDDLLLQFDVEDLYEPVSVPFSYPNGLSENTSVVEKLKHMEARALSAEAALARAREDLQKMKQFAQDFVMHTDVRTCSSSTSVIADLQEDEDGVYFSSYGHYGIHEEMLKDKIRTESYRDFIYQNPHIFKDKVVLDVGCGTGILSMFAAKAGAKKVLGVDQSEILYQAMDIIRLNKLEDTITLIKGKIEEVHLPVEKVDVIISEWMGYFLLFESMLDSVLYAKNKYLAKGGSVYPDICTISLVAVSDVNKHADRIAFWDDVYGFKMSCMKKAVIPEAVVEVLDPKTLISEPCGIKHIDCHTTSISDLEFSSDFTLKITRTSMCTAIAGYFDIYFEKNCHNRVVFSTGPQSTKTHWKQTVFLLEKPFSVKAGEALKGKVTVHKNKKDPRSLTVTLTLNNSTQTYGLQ
experimentalEndpoint: IC50 (nM)

>>> recordedmeasurement("Nc1ncnc2c1ncn2[C@@H]1O[C@H](CSCC[C@H](N)C(=O)O)[C@@H](O)[C@H]1O [SAH, reference compound]")
870

====

Molecular target: UniProt:Q9BV86
Sequence (Q9BV86 1-223): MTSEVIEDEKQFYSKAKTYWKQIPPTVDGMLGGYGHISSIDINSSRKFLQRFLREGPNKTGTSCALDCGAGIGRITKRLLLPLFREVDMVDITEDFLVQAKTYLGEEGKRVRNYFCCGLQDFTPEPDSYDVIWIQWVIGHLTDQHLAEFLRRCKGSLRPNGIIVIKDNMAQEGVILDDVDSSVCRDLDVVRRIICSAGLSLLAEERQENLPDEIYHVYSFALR
Assay: Methyltransferase inhibition panel: NRMT1
Type: biochemical
Settings: control compound; substrate RCC1 5 μM
experimentalEndpoint: IC50 (nM)

>>> recordedmeasurement("Nc1ncnc2c1ncn2[C@@H]1O[C@H](CSCC[C@H](N)C(=O)O)[C@@H](O)[C@H]1O [SAH, reference compound]")
310

====

biological target: SUV39H2 (Homo sapiens)
Sequence (Q9H5I1 whole entry): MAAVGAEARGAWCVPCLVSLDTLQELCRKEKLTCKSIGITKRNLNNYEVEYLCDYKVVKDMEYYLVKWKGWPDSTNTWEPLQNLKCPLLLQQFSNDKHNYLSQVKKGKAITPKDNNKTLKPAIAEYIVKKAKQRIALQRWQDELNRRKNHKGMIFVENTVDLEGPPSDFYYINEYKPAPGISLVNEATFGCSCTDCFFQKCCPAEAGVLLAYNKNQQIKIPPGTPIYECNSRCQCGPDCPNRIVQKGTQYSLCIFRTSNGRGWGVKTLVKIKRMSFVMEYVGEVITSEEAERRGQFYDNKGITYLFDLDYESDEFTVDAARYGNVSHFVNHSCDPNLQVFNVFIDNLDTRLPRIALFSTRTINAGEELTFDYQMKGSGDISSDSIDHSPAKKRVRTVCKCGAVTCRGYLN
experimentalEndpoint: IC50 (µM)

>>> recordedmeasurement("Nc1ncnc2c1ncn2[C@@H]1O[C@H](CSCC[C@H](N)C(=O)O)[C@@H](O)[C@H]1O [SAH, reference compound]")
44.3

====

molecular target: DNMT3a (Homo sapiens, UniProt Q9Y6K1)
Sequence (Q9Y6K1 whole entry, looked up): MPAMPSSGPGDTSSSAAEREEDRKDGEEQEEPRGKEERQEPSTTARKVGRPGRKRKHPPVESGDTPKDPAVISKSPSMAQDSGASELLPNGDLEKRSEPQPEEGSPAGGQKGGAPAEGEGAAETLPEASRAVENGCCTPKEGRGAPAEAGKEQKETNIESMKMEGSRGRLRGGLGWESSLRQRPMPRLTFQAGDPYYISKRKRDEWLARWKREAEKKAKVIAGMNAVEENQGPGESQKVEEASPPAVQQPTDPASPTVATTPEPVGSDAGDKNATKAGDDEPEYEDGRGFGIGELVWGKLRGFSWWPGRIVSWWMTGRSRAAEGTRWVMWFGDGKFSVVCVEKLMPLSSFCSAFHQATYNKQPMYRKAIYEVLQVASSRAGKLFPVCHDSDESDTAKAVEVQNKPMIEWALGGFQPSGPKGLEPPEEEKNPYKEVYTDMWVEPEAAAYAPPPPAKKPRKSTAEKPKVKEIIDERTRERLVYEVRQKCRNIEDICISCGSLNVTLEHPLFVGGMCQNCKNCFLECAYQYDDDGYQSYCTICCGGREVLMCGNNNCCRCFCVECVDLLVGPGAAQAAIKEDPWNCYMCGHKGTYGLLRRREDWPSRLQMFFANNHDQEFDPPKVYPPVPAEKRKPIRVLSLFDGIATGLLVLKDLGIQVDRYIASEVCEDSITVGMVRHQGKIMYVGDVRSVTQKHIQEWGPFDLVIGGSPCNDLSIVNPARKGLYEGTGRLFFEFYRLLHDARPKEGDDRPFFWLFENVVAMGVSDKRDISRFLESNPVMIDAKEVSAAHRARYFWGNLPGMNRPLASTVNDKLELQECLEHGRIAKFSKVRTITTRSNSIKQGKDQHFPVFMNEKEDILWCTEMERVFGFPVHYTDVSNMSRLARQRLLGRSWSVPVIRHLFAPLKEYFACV
experimentalEndpoint: IC50 (nM)

>>> recordedmeasurement("Nc1ncnc2c1ncn2[C@@H]1O[C@H](CSCC[C@H](N)C(=O)O)[C@@H](O)[C@H]1O [SAH, reference compound]")
154

====

molecular target: MLL4 Complex (Homo sapiens, UniProt Q9UMN6); assay: Methyltransferase inhibition panel: MLL4 Complex; details: control compound; substrate Nucleosomes 0.05 mg/mL
experimentalEndpoint: IC50 (nM)

>>> recordedmeasurement("Nc1ncnc2c1ncn2[C@@H]1O[C@H](CSCC[C@H](N)C(=O)O)[C@@H](O)[C@H]1O [SAH, reference compound]")
816

====

molecular target: DNMT3b/3L (Homo sapiens, UniProt Q9UBC3); experiment: Methyltransferase inhibition panel: DNMT3b/3L; settings: read-out: Control IC50*
experimentalEndpoint: IC50 (nM)

>>> recordedmeasurement("Nc1ncnc2c1ncn2[C@@H]1O[C@H](CSCC[C@H](N)C(=O)O)[C@@H](O)[C@H]1O [SAH, reference compound]")
19.3

====

biological target: MLL2 Complex (Homo sapiens); assay: Methyltransferase inhibition panel: MLL2 Complex; settings: control compound; substrate Nucleosomes 0.05 mg/mL
experimentalEndpoint: IC50

>>> recordedmeasurement("Nc1ncnc2c1ncn2[C@@H]1O[C@H](CSCC[C@H](N)C(=O)O)[C@@H](O)[C@H]1O [SAH, reference compound]")
"21.2 µM"

====

Target: SUV420H1TV2 (Homo sapiens, UniProt Q4FZB7)
Sequence (Q4FZB7 1-393 isoform Q4FZB7-2): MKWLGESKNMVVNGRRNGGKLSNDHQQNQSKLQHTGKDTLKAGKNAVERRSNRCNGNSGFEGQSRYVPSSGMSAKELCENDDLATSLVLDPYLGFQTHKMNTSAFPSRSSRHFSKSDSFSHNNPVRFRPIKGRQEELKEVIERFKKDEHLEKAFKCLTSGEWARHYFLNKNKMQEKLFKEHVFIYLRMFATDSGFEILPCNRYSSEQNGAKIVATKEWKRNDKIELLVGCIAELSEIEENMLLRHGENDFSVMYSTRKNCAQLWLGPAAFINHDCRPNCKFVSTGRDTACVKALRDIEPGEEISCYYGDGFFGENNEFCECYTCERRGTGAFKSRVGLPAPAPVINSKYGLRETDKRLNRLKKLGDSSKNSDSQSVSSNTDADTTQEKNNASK
Test: Methyltransferase inhibition panel: SUV420H1TV2
Format: biochemical
Details: control compound; substrate Nucleosomes 0.05 mg/mL
Experimental: The ability of ETP69 to inhibit methyltransferases was tested.
pIC50: −log10 of the molar value.
experimentalEndpoint: pIC50

>>> recordedmeasurement("Nc1ncnc2c1ncn2[C@@H]1O[C@H](CSCC[C@H](N)C(=O)O)[C@@H](O)[C@H]1O [SAH, reference compound]")
3.93

====

biological target: PRMT6 (Homo sapiens, UniProt Q96LA8)
Sequence (Q96LA8 whole entry): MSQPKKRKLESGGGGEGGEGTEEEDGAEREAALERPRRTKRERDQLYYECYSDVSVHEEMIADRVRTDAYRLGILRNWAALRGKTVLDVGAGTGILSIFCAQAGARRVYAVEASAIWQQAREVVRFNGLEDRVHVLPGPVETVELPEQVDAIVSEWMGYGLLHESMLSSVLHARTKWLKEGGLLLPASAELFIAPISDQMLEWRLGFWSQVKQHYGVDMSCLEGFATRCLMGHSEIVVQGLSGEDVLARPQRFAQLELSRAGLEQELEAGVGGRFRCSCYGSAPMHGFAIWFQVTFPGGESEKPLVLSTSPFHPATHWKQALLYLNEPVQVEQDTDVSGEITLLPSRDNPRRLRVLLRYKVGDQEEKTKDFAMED
experimentalEndpoint: IC50 (nM)

>>> recordedmeasurement("Nc1ncnc2c1ncn2[C@@H]1O[C@H](CSCC[C@H](N)C(=O)O)[C@@H](O)[C@H]1O [SAH, reference compound]")
204

====

target: SET1b Complex (Homo sapiens); assay: Methyltransferase inhibition panel: SET1b Complex; settings: control compound; substrate Core Histone 0.05 mg/mL
experimentalEndpoint: IC50 (µM)

>>> recordedmeasurement("Nc1ncnc2c1ncn2[C@@H]1O[C@H](CSCC[C@H](N)C(=O)O)[C@@H](O)[C@H]1O [SAH, reference compound]")
8.59

====

biological target: SETDB1 (Homo sapiens, UniProt Q15047)
pIC50: −log10 of the molar value.
experimentalEndpoint: pIC50

>>> recordedmeasurement("Nc1ncnc2c1ncn2[C@@H]1O[C@H](CSCC[C@H](N)C(=O)O)[C@@H](O)[C@H]1O [SAH, reference compound]")
5.98

====

target: SETD2 (Homo sapiens)
pIC50: −log10 of the molar value.
experimentalEndpoint: pIC50

>>> recordedmeasurement("Nc1ncnc2c1ncn2[C@@H]1O[C@H](CSCC[C@H](N)C(=O)O)[C@@H](O)[C@H]1O [SAH, reference compound]")
5.51
